- System: CRL-7250
- RUN DESCRIPTION: Cytotoxic Profiling of Annotated Libraries Using Quantitative High-Throughput Screening (AID 1296008); note: nearly all actives have a fitted effect of over 60% in size
- CONDITION: Five cell lines viability, CellTiter-Glo ATP luminescence, 48-72 h
Results filed as inconclusive are left out. The source made the active and inactive calls. Calls come from the whole dose curve; as a rule, active = well fitted inhibition curve with a large enough effect; inconclusive = small, poorly fitted or top-dose-only effect; inactive = flat fitted curve, though single readings scatter.
READOUT TYPE: Potency

COMPOUND	TESTED SYSTEM	Potency
CC[N+](CC)(CC)CC	CRL-7250	inactive
CN1CCN(C(=O)O[C@H]2c3nccnc3C(=O)N2c2ccc(Cl)cn2)CC1	CRL-7250	inactive
Cn1c(CCCC(=O)O)nc2cc(N(CCCl)CCCl)ccc21	CRL-7250	inactive
CCN(CC)C(=O)N[C@@H]1C=C2c3cccc4[nH]cc(c34)C[C@@H]2N(C)C1	CRL-7250	inactive
CN(C)[C@@H]1C(=O)C(C(N)=O)=C(O)[C@@]2(O)C(=O)C3=C(O)c4c(O)cccc4[C@@](C)(O)[C@H]3C[C@@H]12	CRL-7250	inactive

Okay, now this compound:
Please give the measured Potency for this compound: NP(N)(=O)NC(=O)c1ccc(F)cc1
inactive
